Parameter Ki, tested on Apoptosis regulator Bcl-2 (Homo sapiens, UniProt P10415), listed per item.
Sequence (P10415 whole entry): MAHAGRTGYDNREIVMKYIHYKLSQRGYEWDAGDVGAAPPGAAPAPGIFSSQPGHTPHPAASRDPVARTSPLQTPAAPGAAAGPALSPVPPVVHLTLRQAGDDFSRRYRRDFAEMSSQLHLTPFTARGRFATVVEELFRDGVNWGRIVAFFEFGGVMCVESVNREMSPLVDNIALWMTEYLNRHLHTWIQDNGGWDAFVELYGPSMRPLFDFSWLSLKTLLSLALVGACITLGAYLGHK

GET /value?item= Cc1cc(OCCCc2c(C(=O)O)sc3cc(Cl)ccc23)cc(C)c1Cl &field=Ki returns 0.8 µM

GET /value?item= Cc1cc(OCCCc2c(C(=O)O)n(C)c3ccccc23)cc(C)c1Cl &field=Ki returns 7.4 µM

GET /value?item= Cc1cccc2c(-c3ccccc3)c(C(=O)O)[nH]c12 &field=Ki returns > 1000 µM

GET /value?item= Cc1ccc2c(Cl)c(C(=O)O)sc2c1 &field=Ki returns > 1000 µM

GET /value?item= Cn1c(C(=O)O)c(CCCOc2cccc3ccccc23)c2ccccc21 &field=Ki returns > 15 µM

GET /value?item= Cc1cc(OCC(=O)O)ccc1Cl &field=Ki returns > 1000 µM

GET /value?item= Cc1c(C(=O)O)oc2c(C)cccc12 &field=Ki returns > 1000 µM

GET /value?item= Cc1cc(OCCCc2c(C(=O)O)[nH]c3ccccc23)ccc1Cl &field=Ki returns 9.1 µM

GET /value?item= Cc1cc(OCCCc2c(C(=O)O)[nH]c3ccccc23)cc(C)c1Cl &field=Ki returns 5.3 µM

GET /value?item= Cc1cc(OCCCc2c(C(=O)O)[nH]c3cc(Cl)ccc23)ccc1Cl &field=Ki returns 1.4 µM

GET /value?item= O=C(O)c1sc2cccc(Cl)c2c1Cl &field=Ki returns > 1000 µM

GET /value?item= Cc1cc(OCCC(=O)O)cc(C)c1Cl &field=Ki returns > 1000 µM

GET /value?item= O=C(O)c1sc2cc(Cl)ccc2c1CCCOc1cccc2ccccc12 &field=Ki returns 0.96 µM
